Listing: pIC50 of selected molecules
Tgt: Dihydrofolate reductase (Rattus norvegicus)
Sequence (Q920D2 whole entry): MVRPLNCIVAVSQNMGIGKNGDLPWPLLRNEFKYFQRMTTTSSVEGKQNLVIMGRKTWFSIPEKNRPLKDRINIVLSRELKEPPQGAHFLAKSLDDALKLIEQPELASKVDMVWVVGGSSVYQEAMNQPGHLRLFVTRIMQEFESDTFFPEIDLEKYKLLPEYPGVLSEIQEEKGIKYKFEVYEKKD
pIC50: −log10 of the molar value.
Endpoint name: pIC50

molecule="COc1cc(CC2CCc3nc(N)nc(N)c32)cc(OC)c1OC (configuration not stated)" reading=4.16
molecule="COc1cc(CCC2CCc3nc(N)nc(N)c32)cc(OC)c1OC (configuration not stated)" reading=6.29

----------
Listing: IC50 of selected molecules
Tgt: Bifunctional dihydrofolate reductase-thymidylate synthase (Toxoplasma gondii)
Sequence (Q07422 whole entry): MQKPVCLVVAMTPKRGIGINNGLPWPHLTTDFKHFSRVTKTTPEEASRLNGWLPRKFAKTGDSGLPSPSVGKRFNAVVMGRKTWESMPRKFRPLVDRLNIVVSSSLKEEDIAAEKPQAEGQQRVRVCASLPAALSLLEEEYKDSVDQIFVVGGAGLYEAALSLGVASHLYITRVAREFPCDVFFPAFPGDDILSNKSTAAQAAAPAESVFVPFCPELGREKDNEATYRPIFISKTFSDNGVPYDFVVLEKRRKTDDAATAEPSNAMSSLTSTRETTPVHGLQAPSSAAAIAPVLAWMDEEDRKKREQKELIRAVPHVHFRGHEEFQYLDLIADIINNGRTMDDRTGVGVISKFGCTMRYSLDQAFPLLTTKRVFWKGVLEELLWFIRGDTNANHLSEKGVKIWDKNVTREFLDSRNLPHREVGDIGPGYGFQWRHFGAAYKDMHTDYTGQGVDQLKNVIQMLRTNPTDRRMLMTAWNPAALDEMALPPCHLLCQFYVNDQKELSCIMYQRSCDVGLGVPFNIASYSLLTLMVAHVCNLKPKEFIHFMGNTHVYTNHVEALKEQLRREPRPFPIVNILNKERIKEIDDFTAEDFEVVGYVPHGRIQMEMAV
Procedure summary: Compound was tested for inhibition activity against Toxoplasma gondii (Toxoplasma gondii) Dihydrofolate reductase
Endpoint name: IC50 (nM)

molecule="COc1cc(CC2CCc3nc(N)nc(N)c32)cc(OC)c1OC (stereo not drawn)" endpoint_name=IC50 reading=21000
molecule="COc1cc(CCC2CCc3nc(N)nc(N)c32)cc(OC)c1OC (stereo not drawn)" endpoint_name=IC50 reading=140
molecule="COc1cc(CCCC2CCc3nc(N)nc(N)c32)cc(OC)c1OC (stereo not drawn)" endpoint_name=IC50 reading=140
